Kd: recorded values
Target: H3 hemagglutinin (A/New York/55/2004) (influenza A virus A/New York/55/2004 (H3N2))
Assay: ELISA on coated HA, relative Kd (4-parameter fit)
Report the value in nM with no unit label.

# Kd of Ab 031 (antibody, V domains shown) VH: EVQLLESGGGLVKPGQSLKLSCAASGFTFTSYAMHWVRQPPGKGLEWVAVVSYDGNYKYYADSVQGRFTISRDNSKNTLYLQMNSLRAEDTAVYYCAKDSRLRSLLYFEWLSQGYFNPWGQGTTLTVSS VL: DIQMTQSPSSLSASVGDRVTITCRSSQSITFNYKNYLAWYQQKPGKAPKLLIYWGSYLESGVPSRFSGSGSGTDFTLTISSLQPEDFATYYCQQHYRTPPSFGQGTKVEIK = 0.059

# Kd of Ab 032 (antibody, V domains shown) VH: QVQLLETGGGLVKPGQSLKLSCAASGFTFTSYAMHWVRQPPGKGLEWVAVVSYDGNYKYYADSVQGRFTISRDNSKNTLYLQMNSLRAEDTAVYYCAKDSRLRSLLYFEWLSQGYFNPWGQGTTLTVSS VL: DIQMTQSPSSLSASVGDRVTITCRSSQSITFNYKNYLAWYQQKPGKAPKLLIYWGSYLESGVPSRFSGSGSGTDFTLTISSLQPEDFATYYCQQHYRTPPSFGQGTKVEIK = 0.094

# Kd of Ab 037 (antibody, V domains shown) VH: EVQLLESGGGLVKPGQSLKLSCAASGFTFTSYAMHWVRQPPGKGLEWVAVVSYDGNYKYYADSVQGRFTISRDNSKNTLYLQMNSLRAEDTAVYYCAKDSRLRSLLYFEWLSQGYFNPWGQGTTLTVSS VL: DIQMTQSPSSLSASVGDRVTITCRSSQSITFNYKNYLGWYQQKPGKAPKLLIYWGSYLESGVPSRFSGSGSGTDFTLTISSLQPEDFATYYCQQHYRTPPSFGQGTKVEIK = 0.14

# Kd of Ab 004 (antibody, V domains shown) VH: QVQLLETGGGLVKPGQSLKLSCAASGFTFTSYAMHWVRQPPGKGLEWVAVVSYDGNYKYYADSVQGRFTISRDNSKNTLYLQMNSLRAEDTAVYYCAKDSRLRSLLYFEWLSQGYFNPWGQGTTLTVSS VL: DIVMTQSPDTLAVTLGERATIQCKSSQTVTFNYKNYLAWYQQKPGQPPKLLIYWASTRESGVPDRFSGSGSGTDFTLTITSLQAEDVAVYYCQQHYRTPPSFGQGTKLDIK = 0.066

# Kd of Ab 005 (antibody, V domains shown) VH: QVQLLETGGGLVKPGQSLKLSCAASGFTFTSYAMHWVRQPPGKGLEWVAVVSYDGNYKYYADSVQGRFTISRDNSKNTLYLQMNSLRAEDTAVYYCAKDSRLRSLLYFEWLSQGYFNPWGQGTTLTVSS VL: DIVMTQSPDTVAVTVGERATINCKSSQTVTFNYKNYLAWYQQKPGQPPKLLIYWASTRESGVPDRFSGSGSGTDFTLTISSLQAEDVAVYYCQQHYRTPPSFGQGTKLDIK = 0.065

# Kd of Ab 038 (antibody, V domains shown) VH: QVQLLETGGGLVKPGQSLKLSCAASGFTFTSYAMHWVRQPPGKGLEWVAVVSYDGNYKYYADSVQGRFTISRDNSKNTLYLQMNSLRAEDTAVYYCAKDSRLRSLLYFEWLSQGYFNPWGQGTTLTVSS VL: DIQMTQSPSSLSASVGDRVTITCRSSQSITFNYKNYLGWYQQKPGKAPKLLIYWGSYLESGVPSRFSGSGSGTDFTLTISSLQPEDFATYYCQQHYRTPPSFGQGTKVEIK = 0.102
